- Assay Target: Heat shock protein HSP90 (Homo sapiens) (UniProt P07900+P08238)
- Run Description: Inhibition of Hsp90 in human MCF7 cells assessed as induction of Akt degradation at 5 fold IC50 after 24 hrs by Western blot method
- Type: cell-based
Activity calls are given as the source filed them. The rule behind the calls is not given here.
Hello, when you answer, please use one of the following outcomes: active, inactive

Some solved entries appear below for comparison.
Smi	Group Label
COc1ccc(C(=O)Nc2cc3ccc(O[C@@H]4OC(C)(C)[C@H](OC)[C@@H](O)[C@H]4O)c(OC)c3oc2=O)cc1-c1cc(C(=O)Nc2cc3ccc(O[C@@H]4OC(C)(C)[C@H](OC)[C@@H](O)[C@H]4O)c(OC)c3oc2=O)ccc1OC	active
Cc1c(OC2CCN(C)CC2)ccc2cc(NC(=O)C/C=C/CC(=O)Nc3cc4ccc(OC5CCN(C)CC5)c(C)c4oc3=O)c(=O)oc12	active
COc1cc2cc(NC(=O)C/C=C/CC(=O)Nc3cc4cc(OC)c(OC5CCN(C)CC5)c(C)c4oc3=O)c(=O)oc2c(C)c1OC1CCN(C)CC1	active
COc1c(OC2CCN(C)CC2)ccc2cc(NC(=O)CC/C=C/CCC(=O)Nc3cc4ccc(OC5CCN(C)CC5)c(OC)c4oc3=O)c(=O)oc12	inactive
Cc1c(OCCCN(C)C)ccc2cc(NC(=O)C/C=C/CC(=O)Nc3cc4ccc(OCCCN(C)C)c(C)c4oc3=O)c(=O)oc12	inactive

Now, please, on to the next molecule.
Q: Would you mind telling me which call this test gave Cc1c(OC2CCN(C)CC2)ccc2cc(NC(=O)CC/C=C/CCC(=O)Nc3cc4ccc(OC5CCN(C)CC5)c(C)c4oc3=O)c(=O)oc12 ?
Result: active

====

- Assay Target: Heat shock protein HSP90 (Homo sapiens) (UniProt P07900+P08238)
- Run Description: Inhibition of Hsp90 in human MCF7 cells assessed as induction of Her2 degradation at 5 fold IC50 after 24 hrs by Western blot method
- Format: cell-based
Activity calls are given as the source filed them. The rule behind the calls is not given here.
Hello, when you answer, please use one of the following outcomes: Yes = active, No = inactive

Smi	Assay Target	Group Label
COc1cc2cc(NC(=O)CC/C=C/CCC(=O)Nc3cc4cc(OC)c(OC5CCN(C)CC5)c(C)c4oc3=O)c(=O)oc2c(C)c1OC1CCN(C)CC1	Heat shock protein HSP90 (Homo sapiens) (UniProt P07900+P08238)	Yes
COc1c(OC2CCN(C)CC2)ccc2cc(NC(=O)CCC/C=C/CCCC(=O)Nc3cc4ccc(OC5CCN(C)CC5)c(OC)c4oc3=O)c(=O)oc12	Heat shock protein HSP90 (Homo sapiens) (UniProt P07900+P08238)	Yes
COc1ccc(C(=O)Nc2cc3ccc(O[C@@H]4OC(C)(C)[C@H](OC)[C@@H](O)[C@H]4O)c(C)c3oc2=O)cc1-c1cc(C(=O)Nc2cc3ccc(O[C@@H]4OC(C)(C)[C@H](OC)[C@@H](O)[C@H]4O)c(C)c3oc2=O)ccc1OC	Heat shock protein HSP90 (Homo sapiens) (UniProt P07900+P08238)	Yes
Cc1c(OC2CCN(C)CC2)ccc2cc(NC(=O)CC/C=C/CCC(=O)Nc3cc4ccc(OC5CCN(C)CC5)c(C)c4oc3=O)c(=O)oc12	Heat shock protein HSP90 (Homo sapiens) (UniProt P07900+P08238)	Yes
COc1cc2cc(NC(=O)C/C=C/CC(=O)Nc3cc4cc(OC)c(OC5CCN(C)CC5)c(C)c4oc3=O)c(=O)oc2c(C)c1OC1CCN(C)CC1	Heat shock protein HSP90 (Homo sapiens) (UniProt P07900+P08238)	Yes

Q: Would you mind telling me which call this test gave Cc1c(OC2CCN(C)CC2)ccc2cc(NC(=O)C/C=C/CC(=O)Nc3cc4ccc(OC5CCN(C)CC5)c(C)c4oc3=O)c(=O)oc12 ?
Result: Yes

Q: Would you mind telling me which call this test gave COc1ccc(C(=O)Nc2cc3ccc(O[C@@H]4OC(C)(C)[C@H](OC)[C@@H](O)[C@H]4O)c(OC)c3oc2=O)cc1-c1cc(C(=O)Nc2cc3ccc(O[C@@H]4OC(C)(C)[C@H](OC)[C@@H](O)[C@H]4O)c(OC)c3oc2=O)ccc1OC ?
Result: Yes

Q: Would you mind telling me which call this test gave Cc1c(OCCCN(C)C)ccc2cc(NC(=O)C/C=C/CC(=O)Nc3cc4ccc(OCCCN(C)C)c(C)c4oc3=O)c(=O)oc12 ?
Result: No

Q: Would you mind telling me which call this test gave Cc1c(OC2CCN(C)CC2)ccc2cc(NC(=O)CCC/C=C/CCCC(=O)Nc3cc4ccc(OC5CCN(C)CC5)c(C)c4oc3=O)c(=O)oc12 ?
Result: No

Q: Would you mind telling me which call this test gave COc1ccc(C(=O)Nc2cc3cc(OC)c(O[C@@H]4OC(C)(C)[C@H](OC)[C@@H](O)[C@H]4O)c(C)c3oc2=O)cc1-c1cc(C(=O)Nc2cc3cc(OC)c(O[C@@H]4OC(C)(C)[C@H](OC)[C@@H](O)[C@H]4O)c(C)c3oc2=O)ccc1OC ?
Result: Yes

Q: Would you mind telling me which call this test gave COc1c(OC2CCN(C)CC2)ccc2cc(NC(=O)C/C=C/CC(=O)Nc3cc4ccc(OC5CCN(C)CC5)c(OC)c4oc3=O)c(=O)oc12 ?
Result: Yes

Q: Would you mind telling me which call this test gave COc1cc2cc(NC(=O)CCC/C=C/CCCC(=O)Nc3cc4cc(OC)c(OC5CCN(C)CC5)c(C)c4oc3=O)c(=O)oc2c(C)c1OC1CCN(C)CC1 ?
Result: Yes

Q: Would you mind telling me which call this test gave COc1c(OC2CCN(C)CC2)ccc2cc(NC(=O)CC/C=C/CCC(=O)Nc3cc4ccc(OC5CCN(C)CC5)c(OC)c4oc3=O)c(=O)oc12 ?
Result: No
